Target: human PAI-1 (Homo sapiens, UniProt P05121)
Sequence (P05121 24-402): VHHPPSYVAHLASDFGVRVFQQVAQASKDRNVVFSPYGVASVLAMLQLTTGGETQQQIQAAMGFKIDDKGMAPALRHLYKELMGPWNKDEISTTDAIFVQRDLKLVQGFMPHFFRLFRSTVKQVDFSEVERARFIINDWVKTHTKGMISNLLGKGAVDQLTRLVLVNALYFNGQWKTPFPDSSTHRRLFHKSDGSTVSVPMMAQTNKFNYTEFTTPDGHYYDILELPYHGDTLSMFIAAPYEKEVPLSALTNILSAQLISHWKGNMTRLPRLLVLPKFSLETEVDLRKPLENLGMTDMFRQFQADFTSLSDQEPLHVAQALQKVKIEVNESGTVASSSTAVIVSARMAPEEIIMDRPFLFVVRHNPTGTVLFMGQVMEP
Test: PAI-1 inhibitory activity, t-PA with Spectrozyme t-PA chromogenic substrate (Reference Experimental Example 2)
Assay type: biochemical
Set-up: purchased Molecular Innovations, Inc. (USA)
Settings: compound 25 μm (head); system without compound after 120 minutes = 100%
Outcome label depends on PAI-1 activity % relative to 90%: at/above gives yes, below gives no.

O=C(Nc1ccc(Cl)cc1C(=O)O)c1ccc(C(=O)C23CC4CC(CC(C4)C2)C3)cc1 [Example 56] : no
O=C(Nc1ccc(Cl)cc1C(=O)[O-])c1cccc(-c2cncc3ccccc23)c1.[Na+] [Example 64] : no
O=C(Nc1ccc(Cl)cc1C(=O)O)C(=O)c1c[nH]c2ccc(OCc3ccccc3)cc12 [Example 57] : no
O=C(COc1ccccc1-c1ccccc1)Nc1ccc(-c2ccoc2)cc1C(=O)O [Example 46] : no
O=C(Nc1ccc(Cl)cc1C(=O)O)c1ccc(C2=CCOCC2)cc1 [Example 34] : yes
O=C(O)c1cc(Cl)ccc1NC(=O)c1cccc2c1Cc1ccccc1-2 [Example 38] : yes
O=C(COc1cccc(C23CC4CC(CC(C4)C2)C3)c1)Nc1ccc(Cl)cc1C(=O)O [Example 30] : no
CC(C)(C)c1cccc(OCC(=O)Nc2ccc(Cl)cc2C(=O)O)c1 [Example 16] : no
O=C(Nc1ccc(Cl)cc1C(=O)[O-])c1cccc(-c2ccncc2)c1.[Na+] [Example 8] : yes
CC(C)(C)c1cccc(OCC(=O)Nc2ccc(Cl)cc2C(=O)O)c1 [Example 18] : no
CC(C)(Oc1cccc(-c2ccoc2)c1)C(=O)Nc1ccc(Cl)cc1C(=O)O [Example 44] : yes
O=C(Nc1ccc(Cl)cc1C(=O)[O-])c1cccc(-c2cccc3cnccc23)c1.[Na+] [Example 66] : no

The values you see were collected from patent US20220340665A1.
